Ref: ChEMBL document CHEMBL4257545

Recorded log10 TGI for the following compounds
- Test system: 786-0
- EXPERIMENT NOTES: Antiproliferative activity against human 786-0 cells assessed as cell growth inhibition after 48 hrs by sulforhodamine B assay
- Format: functional
- COND: 786-0, 48 h
Field: value | Transform: log10 | Quantity: TGI | Unit: µM

| COMPOUND | TEST SYSTEM | log10 TGI |
| --- | --- | --- |
| C=C(C)[C@@H]1CC=C(Cn2cc(COc3ccc(C4NC(=O)NC(C)=C4C(C)=O)cc3)nn2)CC1 (stereo partly specified) | 786-0 | 1.37 |
| C=C(C)[C@@H]1CC=C(Cn2cc(COc3ccc(C4NC(=O)NC(C)=C4C(=O)OCC)cc3)nn2)CC1 (stereo partly specified) | 786-0 | 1.99 |
| C=C(C)[C@@H]1CC=C(Cn2cc(COc3ccccc3C3NC(=O)NC(C)=C3C(C)=O)nn2)CC1 (stereo partly specified) | 786-0 | 1.90 |
| C=C(C)[C@@H]1CC=C(Cn2cc(COc3ccc(C4NC(=O)NC(C)=C4C(=O)OCC)cc3OC)nn2)CC1 (stereo partly specified) | 786-0 | 1.94 |

Input: Fill in log10 TGI for record C=C(C)[C@@H]1CC=C(Cn2cc(COc3ccccc3C3NC(=O)NC4=C3C(=O)CC(C)(C)C4)nn2)CC1 (stereo partly specified)
Output: 1.43

Input: Fill in log10 TGI for record "COc1cccc2c1C(=O)c1c(O)c3c(c(O)c1C2=O)C[C@@](O)(C(=O)CO)C[C@@H]3O[C@H]1C[C@H](N)[C@H](O)[C@H](C)O1"
Output: -1.70

Input: Fill in log10 TGI for record C=C(C)[C@@H]1CC=C(Cn2cc(COc3ccc(C4NC(=O)NC(C)=C4C(C)=O)cc3OC)nn2)CC1 (stereo partly specified)
Output: 1.94

Input: Fill in log10 TGI for record C=C(C)[C@@H]1CC=C(Cn2cc(COc3cccc(C4NC(=O)NC(C)=C4C(C)=O)c3)nn2)CC1 (stereo partly specified)
Output: 1.64

Input: Fill in log10 TGI for record C=C(C)[C@@H]1CC=C(Cn2cc(COc3ccc(C4NC(=O)NC5=C4C(=O)CC(C)(C)C5)cc3)nn2)CC1 (stereo partly specified)
Output: 1.73

Input: Fill in log10 TGI for record C=C(C)[C@@H]1CC=C(Cn2cc(COc3cccc(C4NC(=O)NC(C)=C4C(=O)OCC)c3)nn2)CC1 (stereo partly specified)
Output: 1.60

###

- Tested on: HaCaT
- EXPERIMENT NOTES: Cytotoxicity against human HaCaT cells assessed as cell growth inhibition after 48 hrs by sulforhodamine B assay
- Assay type: cell-based
Under this convention, criterion met denotes TGI strictly below 80 µM and criterion not met denotes TGI at or above 80 µM.

Input: Strictly below 80 µM: is that where TGI of C=C(C)[C@@H]1CC=C(Cn2cc(COc3cccc(C4NC(=O)NC(C)=C4C(=O)OCC)c3)nn2)CC1 (stereo partly specified) sits?
Output: criterion not met

Input: Strictly below 80 µM: is that where TGI of C=C(C)[C@@H]1CC=C(Cn2cc(COc3ccc(C4NC(=O)NC(C)=C4C(=O)OCC)cc3)nn2)CC1 (stereo partly specified) sits?
Output: criterion not met

Input: Strictly below 80 µM: is that where TGI of C=C(C)[C@@H]1CC=C(Cn2cc(COc3cc(C4NC(=O)NC5=C4C(=O)CC(C)(C)C5)ccc3OC)nn2)CC1 (stereo partly specified) sits?
Output: criterion not met

Input: Strictly below 80 µM: is that where TGI of "COc1cccc2c1C(=O)c1c(O)c3c(c(O)c1C2=O)C[C@@](O)(C(=O)CO)C[C@@H]3O[C@H]1C[C@H](N)[C@H](O)[C@H](C)O1" sits?
Output: criterion met

Input: Strictly below 80 µM: is that where TGI of C=C(C)[C@@H]1CC=C(Cn2cc(COc3ccc(C4NC(=O)NC5=C4C(=O)CC(C)(C)C5)cc3)nn2)CC1 (stereo partly specified) sits?
Output: criterion not met

Input: Strictly below 80 µM: is that where TGI of C=C(C)[C@@H]1CC=C(Cn2cc(COc3cccc(C4NC(=O)NC(C)=C4C(C)=O)c3)nn2)CC1 (stereo partly specified) sits?
Output: criterion not met

Input: Strictly below 80 µM: is that where TGI of C=C(C)[C@@H]1CC=C(Cn2cc(COc3ccc(C4NC(=O)NC(C)=C4C(C)=O)cc3OC)nn2)CC1 (stereo partly specified) sits?
Output: criterion not met

Input: Strictly below 80 µM: is that where TGI of C=C(C)[C@@H]1CC=C(Cn2cc(COc3ccc(C4NC(=O)NC5=C4C(=O)CC(C)(C)C5)cc3OC)nn2)CC1 (stereo partly specified) sits?
Output: criterion met

###

Recorded selectivity ratio for the following molecules
- EXPERIMENT NOTES: Selectivity index, ratio of TGI for human HaCaT cells to TGI for human U251 cells
- Format: toxicity
- COND: HaCaT cells and U251 cells, read-out: Selectivity Index
No unit in the answer, please; the number alone is enough.

Solved entries (count: 2):
| MOLECULE | selectivity ratio |
| --- | --- |
| C=C(C)[C@@H]1CC=C(Cn2cc(COc3cc(C4NC(=O)NC5=C4C(=O)CC(C)(C)C5)ccc3OC)nn2)CC1 (stereo partly drawn) | 54.5 |
| C=C(C)[C@@H]1CC=C(Cn2cc(COc3cccc(C4NC(=O)NC(C)=C4C(=O)OCC)c3)nn2)CC1 (stereo partly drawn) | 41.7 |

Input: Fill in selectivity ratio for record C=C(C)[C@@H]1CC=C(Cn2cc(COc3ccc(C4NC(=O)NC5=C4C(=O)CC(C)(C)C5)cc3)nn2)CC1 (stereo partly drawn)
Output: 66

###

- Tested on: HaCaT
- EXPERIMENT NOTES: Cytotoxicity against human HaCaT cells assessed as cell growth inhibition after 48 hrs by sulforhodamine B assay
- Type: cell-based
RECORDED ENDPOINT: log10 of TGI (log10 of the value in µM)
Field: value | Transform: log10 | Quantity: TGI | Unit: µM

Solved entries (count: 7):
| MOLECULE | RECORDED ENDPOINT | RESULT NUMBER |
| --- | --- | --- |
| C=C(C)[C@@H]1CC=C(Cn2cc(COc3ccccc3C3NC(=O)NC4=C3C(=O)CC(C)(C)C4)nn2)CC1 (stereo partly drawn) | log10 of TGI | 1.90 |
| C=C(C)[C@@H]1CC=C(Cn2cc(COc3ccc(C4NC(=O)NC(C)=C4C(=O)OCC)cc3OC)nn2)CC1 (stereo partly drawn) | log10 of TGI | 1.88 |
| C=C(C)[C@@H]1CC=C(Cn2cc(COc3cc(C4NC(=O)NC(C)=C4C(=O)OCC)ccc3OC)nn2)CC1 (stereo partly drawn) | log10 of TGI | 1.90 |
| C=C(C)[C@@H]1CC=C(Cn2cc(COc3cc(C4NC(=O)NC(C)=C4C(C)=O)ccc3OC)nn2)CC1 (stereo partly drawn) | log10 of TGI | 2.69 |
| C=C(C)[C@@H]1CC=C(Cn2cc(COc3ccccc3C3NC(=O)NC(C)=C3C(C)=O)nn2)CC1 (stereo partly drawn) | log10 of TGI | 1.47 |
| C=C(C)[C@@H]1CC=C(Cn2cc(COc3ccccc3C3NC(=O)NC(C)=C3C(=O)OCC)nn2)CC1 (stereo partly drawn) | log10 of TGI | 2.47 |
| C=C(C)[C@@H]1CC=C(Cn2cc(COc3cccc(C4NC(=O)NC5=C4C(=O)CC(C)(C)C5)c3)nn2)CC1 (stereo partly drawn) | log10 of TGI | 1.56 |

Switching to the query record.
Input: Quote HaCaT log10 of TGI for entry C=C(C)[C@@H]1CC=C(Cn2cc(COc3ccc(C4NC(=O)NC(C)=C4C(C)=O)cc3)nn2)CC1 (stereo partly drawn) .
Output: 1.65
